# assayed_system: KRAS G12V-BRAF complex (Homo sapiens (Human), UniProt P01116+P62937, G12V)
# Sequence (P01116-2 other isoform, or with tags, fused parts or gaps G12V): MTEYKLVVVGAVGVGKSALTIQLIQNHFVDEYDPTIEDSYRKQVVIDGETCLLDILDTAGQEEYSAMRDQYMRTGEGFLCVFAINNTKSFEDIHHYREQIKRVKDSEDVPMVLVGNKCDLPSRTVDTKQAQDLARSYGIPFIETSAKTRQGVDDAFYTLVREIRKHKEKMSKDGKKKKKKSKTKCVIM
# Sequence (P62937 whole entry): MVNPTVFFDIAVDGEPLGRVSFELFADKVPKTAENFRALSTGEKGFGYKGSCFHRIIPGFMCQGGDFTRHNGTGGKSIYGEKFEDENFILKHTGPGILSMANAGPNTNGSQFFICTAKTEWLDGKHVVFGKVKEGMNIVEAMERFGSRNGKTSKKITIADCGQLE
# protocol_summary: KRAS-BRAF with CYPA (500 nM) interaction assay (TR-FRET), G12V
Listed here: items and their measured IC50.
endpoint: IC50 (nM)

1. CO[C@@H](C)c1ncc(N2CCN(CC(F)(F)F)CC2)cc1-c1c2c3cc(ccc3n1CC(F)(F)F)-c1csc(n1)C[C@H](NC(=O)[C@H](C(C)C)N(C)C(=O)N1CCOCC1)C(=O)N1CCC[C@H](N1)C(=O)OCC(C)(C)C2 (atropisomer, axis not shown; (M))    61
2. CCn1c(-c2cc(N3CCN(C)CC3)cnc2[C@H](C)OC)c2c3cc(c(F)cc31)-c1csc(n1)C[C@H](NC(=O)[C@H](C(C)C)N(C)C(=O)N1CCOCC1)C(=O)N1CCC[C@H](N1)C(=O)OCC(C)(C)C2 (atropisomer, axis not shown; (M))    149
3. CO[C@@H](C)c1ncc(N2CCN(C)CC2)cc1-c1c2c3cc(c(F)cc3n1CC(F)(F)F)-c1csc(n1)C[C@H](NC(=O)[C@H](C(C)C)N(C)C(=O)N1CC(N(C)C)C1)C(=O)N1CCC[C@H](N1)C(=O)OCC(C)(C)C2 (atropisomer, axis not shown; (M))    70
4. CCn1c(-c2cc(N3CCN(CC(F)(F)F)CC3)cnc2[C@H](C)OC)c2c3cc(c(F)cc31)-c1csc(n1)C[C@H](NC(=O)[C@H](C(C)C)N(C)C(=O)N1CCOCC1)C(=O)N1CCC[C@H](N1)C(=O)OCC(C)(C)C2 (atropisomer, axis not shown; (M))    124

Origin of measurements: patent US20250268894A1
